Where do the numbers come from? From PubChem BioAssay AID1963844.

# Test system: 422866-222-R5-J1-PDC complex spheroid viability
# Assay Comment: Anticancer human tumor 422866-222-R5-J1-PDC patient-derived pancreatic adenocarcinoma cell line growth inhibition [POLQ]
# Test Context: curve of first compound; second compound 0.316 µM
pIC50: −log10 of the molar value.
Would you kindly list pIC50 for each of these compounds?

For orientation, consider the following solved cases.
| Compound | Observed Value |
| --- | --- |
| CCc1cc2c(N3CCc4c(cc(Cn5ccnc5)cc4-c4cn(C)nc4C(F)(F)F)C3=O)cc(C)nc2c(OC)n1 + Cc1cccc(N(C)C(=O)C2C(O)CCN2c2nc(C)cc(C(F)(F)F)c2C#N)c1 | < 5.00 |
| CC1COCCN1c1cc(C2(O)CC3CCC(C2)O3)c2cnn(-c3ccn[nH]3)c2n1 (stereo unspecified) + Nc1ccc(C#CCN(C(=O)Cc2ncc(C(F)(F)F)cc2C(F)(F)F)c2ccc(F)cc2)nn1 | > 7.50 |
| COc1ccc([C@@H](O)c2cc(-c3ncnc4cc(N5CCOCC5)ccc34)c(F)cc2Cl)nn1 + Nc1ccc(C#CCN(C(=O)Cc2ncc(C(F)(F)F)cc2C(F)(F)F)c2ccc(F)cc2)nn1 | 5.56 |
| O=c1[nH]cc(F)c(=O)[nH]1 + COC1C(OC(N)=O)C(O)C(Oc2ccc3c(O)c(NC(=O)c4ccc(O)c(CC=C(C)C)c4)c(=O)oc3c2C)OC1(C)C | < 5.00 |
| O=C(c1cc(Cc2n[nH]c(=O)c3ccccc23)ccc1F)N1CCN(C(=O)C2CC2)CC1 + Cc1cccc(N(C)C(=O)C2C(O)CCN2c2nc(C)cc(C(F)(F)F)c2C#N)c1 | < 5.00 |
| CC1COCCN1c1cc(C2(S(C)(=N)=O)CC2)nc(-c2ccnc3[nH]ccc23)n1 (stereo unspecified) + COC1C(OC(N)=O)C(O)C(Oc2ccc3c(O)c(NC(=O)c4ccc(O)c(CC=C(C)C)c4)c(=O)oc3c2C)OC1(C)C | 5.55 |
| C=CC(=O)N1CCN(c2nc(=O)n(-c3c(C)ccnc3C(C)C)c3nc(-c4c(O)cccc4F)c(F)cc23)C(C)C1 (stereo unspecified) + Nc1ccc(C#CCN(C(=O)Cc2ncc(C(F)(F)F)cc2C(F)(F)F)c2ccc(F)cc2)nn1 | > 7.50 |
| COc1cc(C2c3cc4c(cc3C(OC3OC5COC(C)OC5C(O)C3O)C3COC(=O)C23)OCO4)cc(OC)c1O (stereo unspecified) + Nc1ccc(C#CCN(C(=O)Cc2ncc(C(F)(F)F)cc2C(F)(F)F)c2ccc(F)cc2)nn1 | 6.26 |

Value sought for every listed compound: pIC50.
1. COc1cccc(OCCCN)c1-c1cc(Nc2cnc(C#N)cn2)n[nH]1 + Cc1cccc(N(C)C(=O)C2C(O)CCN2c2nc(C)cc(C(F)(F)F)c2C#N)c1
2. O=C(c1cc(Cc2n[nH]c(=O)c3ccccc23)ccc1F)N1CCN(C(=O)C2CC2)CC1 + Nc1ccc(C#CCN(C(=O)Cc2ncc(C(F)(F)F)cc2C(F)(F)F)c2ccc(F)cc2)nn1
3. COc1cc2cc(C(=O)CCC(=O)O)sc2cc1OC + Cc1cccc(N(C)C(=O)C2C(O)CCN2c2nc(C)cc(C(F)(F)F)c2C#N)c1

## Result
1. 8.18
2. < 5.00
3. < 5.00

* * *

# Test system: 422866-222-R5-J1-PDC complex spheroid viability
# Assay Comment: Anticancer human tumor 422866-222-R5-J1-PDC cell line growth inhibition [POLQ];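 further: spheroids exposed to compounds for one week before readout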;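 on viability, T/C: percent of DMSO vehicle wells luminescence so 100% = untreated viability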
# Test Context: second compound 0.1 µM; first compound 10 µM; stronger effect = lower value
Assay Metric: viability, T/C (%)
Numbers only, in %.

| Compound | viability, T/C (%) |
| --- | --- |
| Nc1ccn(C2OC(CO)C(O)C2(F)F)c(=O)n1 (stereo not given) + Cc1cccc(N(C)C(=O)C2C(O)CCN2c2nc(C)cc(C(F)(F)F)c2C#N)c1 | 35.4 |
| C=CC(=O)N1CCN(c2nc(=O)n(-c3c(C)ccnc3C(C)C)c3nc(-c4c(O)cccc4F)c(F)cc23)C(C)C1 (stereo not given) + Nc1ccc(C#CCN(C(=O)Cc2ncc(C(F)(F)F)cc2C(F)(F)F)c2ccc(F)cc2)nn1 | 22.4 |
| CC(C)n1c(=O)n(C)c2cnc3cc(F)c(-c4ccc(OCCCN5CCCCC5)nc4)cc3c21 + Nc1ccc(C#CCN(C(=O)Cc2ncc(C(F)(F)F)cc2C(F)(F)F)c2ccc(F)cc2)nn1 | 66.2 |
| CNCc1ccc(-c2[nH]c3cc(F)cc4c3c2CCNC4=O)cc1 + COC1C(OC(N)=O)C(O)C(Oc2ccc3c(O)c(NC(=O)c4ccc(O)c(CC=C(C)C)c4)c(=O)oc3c2C)OC1(C)C | 95 |

## Task What measured viability, T/C goes with COc1cccc2c1C(=O)c1c(O)c3c(c(O)c1C2=O)CC(O)(C(=O)CO)CC3OC1CC(N)C(O)C(C)O1 (stereo not given) + COC1C(OC(N)=O)C(O)C(Oc2ccc3c(O)c(NC(=O)c4ccc(O)c(CC=C(C)C)c4)c(=O)oc3c2C)OC1(C)C ?
## Result 33.3

* * *

Would you kindly list viability, T/C for each of these compounds?
# Tested on: 422866-222-R5-J1-PDC complex spheroid viability
# Assay Comment: Anticancer human tumor 422866-222-R5-J1-PDC cell line growth inhibition [POLQ];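 further: spheroids exposed to compounds for one week before readout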;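 on viability, T/C: percent of DMSO vehicle wells luminescence so 100% = untreated viability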
# Test Context: second compound 0.1 µM; first compound 0.1 µM; stronger effect = lower value
Numbers only, in %.

| Compound | Study Target | viability, T/C / % |
| --- | --- | --- |
| O=C(Nc1ccc(O)c(NS(=O)(=O)c2ccc(F)cc2)c1)c1ccc(-c2ccccc2)cc1 + Nc1ccc(C#CCN(C(=O)Cc2ncc(C(F)(F)F)cc2C(F)(F)F)c2ccc(F)cc2)nn1 | 422866-222-R5-J1-PDC complex spheroid viability | 94.3 |
| CC(C)n1c(=O)n(C)c2cnc3cc(F)c(-c4ccc(OCCCN5CCCCC5)nc4)cc3c21 + COC1C(OC(N)=O)C(O)C(Oc2ccc3c(O)c(NC(=O)c4ccc(O)c(CC=C(C)C)c4)c(=O)oc3c2C)OC1(C)C | 422866-222-R5-J1-PDC complex spheroid viability | 38.5 |
| O=C(c1cc(Cc2n[nH]c(=O)c3ccccc23)ccc1F)N1CCN(C(=O)C2CC2)CC1 + COC1C(OC(N)=O)C(O)C(Oc2ccc3c(O)c(NC(=O)c4ccc(O)c(CC=C(C)C)c4)c(=O)oc3c2C)OC1(C)C | 422866-222-R5-J1-PDC complex spheroid viability | 42.5 |

Value sought for every listed compound: viability, T/C.
1. COc1cccc2c1C(=O)c1c(O)c3c(c(O)c1C2=O)CC(O)(C(=O)CO)CC3OC1CC(N)C(O)C(C)O1 (stereo not given) + COC1C(OC(N)=O)C(O)C(Oc2ccc3c(O)c(NC(=O)c4ccc(O)c(CC=C(C)C)c4)c(=O)oc3c2C)OC1(C)C
2. CC1COCCN1c1cc(C2(O)CC3CCC(C2)O3)c2cnn(-c3ccn[nH]3)c2n1 (stereo not given) + Nc1ccc(C#CCN(C(=O)Cc2ncc(C(F)(F)F)cc2C(F)(F)F)c2ccc(F)cc2)nn1

## Result
94.4
39.4

* * *

# Test system: 422866-222-R5-J1-PDC complex spheroid viability
# Assay Comment: Anticancer human tumor 422866-222-R5-J1-PDC cell line growth inhibition [POLQ];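 further: spheroids exposed to compounds for one week before readout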;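 on viability, T/C: percent of DMSO vehicle wells luminescence so 100% = untreated viability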
# Test Context: second compound 0.0316 µM; first compound 1 µM; stronger effect = lower value
Assay Metric: viability, T/C (%)
Answers are plain numbers, in %.

For orientation, consider the following solved cases.
| Compound | Assay Metric | Observed Value |
| --- | --- | --- |
| COc1cccc2c1C(=O)c1c(O)c3c(c(O)c1C2=O)CC(O)(C(=O)CO)CC3OC1CC(N)C(O)C(C)O1 (stereo not given) + Nc1ccc(C#CCN(C(=O)Cc2ncc(C(F)(F)F)cc2C(F)(F)F)c2ccc(F)cc2)nn1 | viability, T/C | 30.2 |
| CC1COCCN1c1cc(C2(O)CC3CCC(C2)O3)c2cnn(-c3ccn[nH]3)c2n1 (stereo not given) + COC1C(OC(N)=O)C(O)C(Oc2ccc3c(O)c(NC(=O)c4ccc(O)c(CC=C(C)C)c4)c(=O)oc3c2C)OC1(C)C | viability, T/C | 83.7 |
| C=CCn1c(=O)c2cnc(Nc3ccc(N4CCN(C)CC4)cc3)nc2n1-c1cccc(C(C)(C)O)n1 + Cc1cccc(N(C)C(=O)C2C(O)CCN2c2nc(C)cc(C(F)(F)F)c2C#N)c1 | viability, T/C | 33.3 |
| CCc1cc2c(N3CCc4c(cc(Cn5ccnc5)cc4-c4cn(C)nc4C(F)(F)F)C3=O)ccnc2c(OC)n1 + Cc1cccc(N(C)C(=O)C2C(O)CCN2c2nc(C)cc(C(F)(F)F)c2C#N)c1 | viability, T/C | 88.2 |
| CCc1cc2c(N3CCc4c(cc(Cn5ccnc5)cc4-c4cn(C)nc4C(F)(F)F)C3=O)ccnc2c(OC)n1 + COC1C(OC(N)=O)C(O)C(Oc2ccc3c(O)c(NC(=O)c4ccc(O)c(CC=C(C)C)c4)c(=O)oc3c2C)OC1(C)C | viability, T/C | 119 |
| CNCc1ccc(-c2[nH]c3cc(F)cc4c3c2CCNC4=O)cc1 + COC1C(OC(N)=O)C(O)C(Oc2ccc3c(O)c(NC(=O)c4ccc(O)c(CC=C(C)C)c4)c(=O)oc3c2C)OC1(C)C | viability, T/C | 97.3 |
| COc1ccc([C@@H](O)c2cc(-c3ncnc4cc(N5CCOCC5)ccc34)c(F)cc2Cl)nn1 + Cc1cccc(N(C)C(=O)C2C(O)CCN2c2nc(C)cc(C(F)(F)F)c2C#N)c1 | viability, T/C | 62.1 |
| C=CCn1c(=O)c2cnc(Nc3ccc(N4CCN(C)CC4)cc3)nc2n1-c1cccc(C(C)(C)O)n1 + COC1C(OC(N)=O)C(O)C(Oc2ccc3c(O)c(NC(=O)c4ccc(O)c(CC=C(C)C)c4)c(=O)oc3c2C)OC1(C)C | viability, T/C | 36.6 |
| CCCS(=O)(=O)Nc1ccc(F)c(C(=O)c2c[nH]c3ncc(-c4ccc(Cl)cc4)cc23)c1F + Nc1ccc(C#CCN(C(=O)Cc2ncc(C(F)(F)F)cc2C(F)(F)F)c2ccc(F)cc2)nn1 | viability, T/C | 181 |

Then there is this compound:
## Task What measured viability, T/C goes with COc1cc(C2c3cc4c(cc3C(OC3OC5COC(C)OC5C(O)C3O)C3COC(=O)C23)OCO4)cc(OC)c1O (stereo not given) + COC1C(OC(N)=O)C(O)C(Oc2ccc3c(O)c(NC(=O)c4ccc(O)c(CC=C(C)C)c4)c(=O)oc3c2C)OC1(C)C ?
## Result 51.3
